System: field corn (Zea mays L., var. Dekalb 535, CORN)
Test: Pre-emerge test, crop safety
Assay type: in vivo
Conditions: 63 g ai/ha; rated 14 days after application; 0 = no damage, 100 = complete death
Hi there, I'd appreciate the recorded Pre-emerge phytotoxicity rating (0-100), crop damage, CORN for every entry that follows.
Numbers only.

Example entries and their recorded answers appear below.
structure_string=COc1c(Cl)cc(F)c(-n2c(=O)cc(C(F)(F)F)n(C)c2=O)c1N(C(=O)c1ccc(C(F)(F)F)cc1)C(=O)c1ccc(C(F)(F)F)cc1 measured_value=25
structure_string=COc1c(Cl)cc(F)c(-n2c(=O)cc(C(F)(F)F)n(C)c2=O)c1NC(=O)c1cccc(Cl)c1 measured_value=90
structure_string=COc1c(Cl)cc(F)c(-n2c(=O)cc(C(F)(F)F)n(C)c2=O)c1NC(=O)c1cccc2ccccc12 measured_value=0
structure_string=CCOC(=O)C(=O)Nc1c(OC)c(Cl)cc(F)c1-n1c(=O)cc(C(F)(F)F)n(C)c1=O measured_value=0
structure_string=COc1c(Cl)cc(F)c(-n2c(=O)cc(C(F)(F)F)n(C)c2=O)c1NC(=O)c1ccc(OC(F)(F)F)cc1 measured_value=0

List Pre-emerge phytotoxicity rating (0-100), crop damage, CORN for every entry below, keeping the order given.
1. COc1c(Cl)cc(F)c(-n2c(=O)cc(C(F)(F)F)n(C)c2=O)c1NC(=O)c1ccc(F)cc1
2. COc1c(Cl)cc(F)c(-n2c(=O)cc(C(F)(F)F)n(C)c2=O)c1NC(=O)c1ccc(F)cc1F

1. 50
2. 85
